Please go through the items and note down their IC50.
- measured_on: recombinant SARS-CoV-2 Main protease (Mpro) (Severe acute respiratory syndrome coronavirus 2 (2019-nCoV) (SARS-CoV-2))
- experiment: Cov Mpro Biochemical IC50 Assay
- experimental_setup: recombinant SARS-CoV-2 Mpro, fluorogenic peptide substrate; read-out: MPro IC50
Give bare numbers, in nM.

O=c1[nH]c2cc(-c3ncco3)sc2c(=O)n1-c1cncc2ccccc12 ... 942
Cc1ccc2cncc(-n3c(=O)[nH]c4cc(-c5ccccc5Cl)sc4c3=O)c2c1 ... 23.7

List IC50 for every entry below, keeping the order given.
1. O=c1[nH]c2cc(-c3ccccc3Cl)sc2c(=O)n1-c1cncc2ccc(N3CC4C(C3)C4(F)F)cc12 (stereo not shown)
2. O=c1[nH]c2cc(-c3ccccc3Cl)sc2c(=O)n1-c1cnccc1N1CCOCC1

output:
1: 22.1; 2: 108
